Collected pEC50 values appear next to each entry.
Assay: Effect on Wnt signaling pathway in human SW480 cells harbouring TCF/LEF luciferase reporter gene and SP5-Luc reporter gene incubated for 36 to 48 hrs by luminescence assay
Type: cell-based
Keep it numeric: pEC50 is minus log10 of the concentration in mol/L.

Here are 7 compounds together with their reported answers.
CN1CCCCN(C)c2nccc3[nH]c(nc23)-c2c[nH]c3ccc(cc23)-c2cncc(c2)C1; 6.24
CN1CCC(Nc2ccc(NC(=O)c3n[nH]c4cc(F)c(-c5cnn(C)c5)cc34)cn2)CC1; 6.64
CN(C)Cc1cncc(-c2cnc3[nH]nc(-c4nc5c(-c6ccsc6)cccc5[nH]4)c3c2)c1; 7.49
c1cncc(-c2cnc3[nH]nc(-c4cc5cccnc5[nH]4)c3c2)c1; 5.97
COc1ccc(NC(=O)c2n[nH]c3ccc(-c4cncc(CN5CCCCC5)c4)cc23)cn1; 7.82
CCC(=O)Nc1cncc(-c2ccc3[nH]nc(-c4nc5c(-c6cccc(F)c6)cncc5[nH]4)c3c2)c1; 8.34
c1cncc(-c2ccc3[nH]nc(-c4nc5c(-c6cccnc6)ccnc5[nH]4)c3n2)c1; 5.82

stdin: Could you share which pEC50 value was measured for O=C(Nc1ccc(-c2ccccc2)nc1)c1n[nH]c2ccc(-c3cncc(CN4CCCCC4)c3)cc12 ?
stdout: 7.00

###

Assay: Effect on Wnt signaling pathway in human SW480 cells harbouring TCF/LEF luciferase reporter gene and SP5-Luc reporter gene incubated for 36 to 48 hrs by luminescence assay
Assay type: cell-based
pEC50: −log10 of the molar value.
Field: class. Source value: pEC50. Ranges: range A (below 6), range B (6 to below 7), range C (7 or more)

Would you please look over these solved cases?
Oc1cncc(-c2ccc3[nH]nc(-c4nc5c(-c6cccc(F)c6)nccc5[nH]4)c3n2)c1; range B
Cc1n[nH]c2ccc(-c3cncc(NC4CCNCC4)n3)cc12; range B
CC(C)CC(=O)Nc1cncc(-c2ccc3[nH]nc(-c4nc5c(-c6cc(F)cc(NCCN(C)C)c6)cncc5[nH]4)c3c2)c1; range C
O=C(Nc1cncc(-c2ccc3[nH]nc(-c4nc5c(-c6ccc(Cl)s6)ccnc5[nH]4)c3n2)c1)C1CCC1; range B
CN1CCN(c2nccc3[nH]c(-c4n[nH]c5ncc(-c6cncc(CN7CCCCC7)c6)cc45)cc23)CC1; range A
CN(C)Cc1cncc(-c2ccc3[nH]nc(-c4cc5c(N6CCCCC6)nccc5[nH]4)c3c2)c1; range A

Could you now consider this next compound?
stdin: Which class is correct for the following compound? CC(C)CC(=O)Nc1cncc(-c2ccc3[nH]nc(-c4nc5c(-c6cccs6)cncc5[nH]4)c3c2)c1
stdout: range C

###

Test: Effect on Wnt signaling pathway in human SW480 cells harbouring TCF/LEF luciferase reporter gene and SP5-Luc reporter gene incubated for 36 to 48 hrs by luminescence assay
Format: cell-based
pEC50: −log10 of the molar value.
We use 7 as the dividing line for pEC50: on or above the line is Criterion met, below is Criterion not met.

Would you please look over these solved cases?
CCNCc1cncc(-c2ccc3[nH]nc(-c4cc5cnccc5[nH]4)c3c2)c1; Criterion not met
c1cncc(-c2ccc3[nH]nc(-c4cc5c(-c6cccnc6)ccnc5[nH]4)c3c2)c1; Criterion not met
CC(C)CC(=O)Nc1cncc(-c2ccc3[nH]nc(-c4nc5c(-c6ccc(Cl)s6)cncc5[nH]4)c3n2)c1; Criterion not met
c1cc(-c2cncc3[nH]c(-c4n[nH]c5ccc(-c6cncc(CNCC7CCCC7)c6)cc45)nc23)cs1; Criterion met

stdin: Reported pEC50 reaches at least 7 for CC(C)Nc1cncc(-c2ccc3[nH]nc(-c4nc5c(-c6cccnc6)cncc5[nH]4)c3n2)c1 ?
stdout: Criterion not met

stdin: Reported pEC50 reaches at least 7 for CC(C)CC(=O)Nc1cncc(-c2ccc3[nH]nc(-c4nc5c(-c6ccc(F)cc6)cncc5[nH]4)c3c2)c1 ?
stdout: Criterion met

stdin: Reported pEC50 reaches at least 7 for CN(C)Cc1cncc(-c2ccc3[nH]nc(-c4cc5c(-c6ccncc6)cncc5[nH]4)c3c2)c1 ?
stdout: Criterion not met

stdin: Reported pEC50 reaches at least 7 for O=C(Nc1ccc(C(=O)N2CCCC2)nc1)c1n[nH]c2ccc(-c3cncc(CN4CCCCC4)c3)cc12 ?
stdout: Criterion met
